# tested.on: biotinylated Gβ1γ2 mutant Arg314Ala (rat) (UniProt P54311)
# Sequence (P54311 whole entry R314A, chain 1 of 2): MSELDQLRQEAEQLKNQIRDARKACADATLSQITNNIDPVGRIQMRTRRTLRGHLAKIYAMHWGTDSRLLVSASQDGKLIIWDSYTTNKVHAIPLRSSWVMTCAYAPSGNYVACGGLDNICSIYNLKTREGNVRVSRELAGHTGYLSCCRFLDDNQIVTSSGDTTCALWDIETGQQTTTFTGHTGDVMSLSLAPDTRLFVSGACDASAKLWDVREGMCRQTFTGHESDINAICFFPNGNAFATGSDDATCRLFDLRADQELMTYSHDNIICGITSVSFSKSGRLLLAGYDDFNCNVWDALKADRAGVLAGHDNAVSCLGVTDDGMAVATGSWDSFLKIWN
# Sequence (P63212 2-68, chain 2 of 2, further chain): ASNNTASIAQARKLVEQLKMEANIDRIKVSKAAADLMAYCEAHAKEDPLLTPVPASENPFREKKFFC
# assay.comment: phage ELISA, % of wild-type b-βγ
readout.kind: % of Wild-Type Signal (%)
// units = %; emit number, no label

// worked examples, % of Wild-Type Signal included
SIGKALFILGYPDYD [phage 3.14 (SIGKALFILGYPDYD)] : 50.2
SCEKRLGVRSCT (Group III) [phage C5 (SCEKRLGVRSCT)] : 76.5
LCSKAYLLLGQTC (Group I) [phage 2F (LCSKAYLLLGQTC)] : 2.4
WCPPKLEQWYDGCA (Group IV) [phage C2 (WCPPKLEQWYDGCA)] : 1.3
SCEKRYGIEFCT [phage C4 (…)] : 1.4
SCGHGLKVQSTIGACA (Group II) [phage 3C (SCGHGLKVQSTIGACA)] : 8.3
WCPPKAMTQLGIKAC (Group II) [phage C14 (WCPPKAMTQLGIKAC)] : 3.9

Attention now turns to another entry.
# input binder: SCKRTKAQILLAPCT (Group I; also called Cl) [phage C1 (SCKRTKAQILLAPCT)] ; wanted: its % of Wild-Type Signal 2.8

Ref: patent US20090221691A1
